Items are presented alongside their recorded pest or weed control at 31 g/ha.
- System: giant foxtail (Setaria faberii)
- Protocol Notes: Test A postemergence
- Type: in vivo
- Condition Context: Setaria faberi, post-emergence, 240 h, Postemergence, 31 g ai/ha; 0 is no effect, 100 is complete control; read-out: Foxtail, Giant plant response rating (0 to 100 scale)
Please format your answer as a value with the unit trailing.

Query: Given CN1C[C@H](c2csc3c2CCC3)[C@@H](C(=O)Nc2cccc(F)c2F)C1=O , state its recorded pest or weed control at 31 g/ha.
Reply: 50%

---

- System: barnyardgrass (Echinochloa crus-galli)
- Protocol Notes: Test C preemergence
- Format: in vivo
- Condition Context: 125 g ai/ha, scale 0 to 100, 0 no effect, 100 complete control
Metric: Plant response rating, Barnyardgrass
Reply with just the number.

Worked examples follow.
[
  {
    "Compound": "CN1C[C@H](c2ccc(F)c(F)c2)[C@@H](C(=O)Nc2cccc(F)c2F)C1=O [Compound 639]",
    "Plant response rating, Barnyardgrass": 95
  },
  {
    "Compound": "Cc1cccc(C2CN(C)C(=O)C2C(=O)Nc2cccc(F)c2F)c1 (stereo not drawn) [Compound 667]",
    "Plant response rating, Barnyardgrass": 98
  },
  {
    "Compound": "CN1CC(c2ccc(C(F)(F)F)c(F)c2)C(C(=O)Nc2ccccc2S(C)(=O)=O)C1=O (stereo not drawn) [Compound 397]",
    "Plant response rating, Barnyardgrass": 98
  }
]

Query: Fill in the blank: the reported Plant response rating, Barnyardgrass of CN1C[C@H](c2ccc(C(F)(F)F)cc2)[C@@H](C(=O)Nc2ccccc2F)C1=O [Compound 622] is ____.
Reply: 90

Query: Name the recorded Plant response rating, Barnyardgrass for CN1CC(c2ccc(C(F)(F)F)cc2)C(C(=S)Nc2ccccc2F)C1=O (stereo not drawn) [Compound 450] .
Reply: 90

Query: What does the record list as Plant response rating, Barnyardgrass for CN1CC(c2cccc(OC(F)(F)C(F)F)c2)C(C(=O)Nc2ccc(F)cc2F)C1=O (stereo not drawn) [Compound 393] ?
Reply: 95
